Data provenance is patent US12077503B2.

Test system: nutsedge, yellow (yellow nutsedge, Cyperus esculentus)
PROTOCOL SUMMARY: Test C preemergence
Type: in vivo
ASSAY CONTEXT: 250 g ai/ha, scale 0 to 100, 0 no effect, 100 complete control
Assign Plant response rating, Nutsedge, Yellow to each entry below.
Numbers only.

Answered examples (3):
>>> result_value("CN1CC(c2cccc(C(F)(F)F)c2)C(C)(C(=O)Nc2ccccc2F)C1=O (stereo not shown) [Compound 428]")
30
>>> result_value("CN1CC(c2cccc(C(F)(F)F)c2)C(C(=O)Nc2cccc(F)c2F)C1=O (stereo not shown) [Compound 636]")
60
>>> result_value("CN1CC(c2ccc(F)c(C(F)(F)F)c2)C(C(=O)Nc2cccc(F)c2F)C1=O (stereo not shown) [Compound 613]")
20

input: Jot down Plant response rating, Nutsedge, Yellow (nutsedge, yellow (yellow nutsedge, Cyperus esculentus)) of O=C1NCC(c2cccc(OC(F)(F)C(F)F)c2)C1C(=O)Nc1ccccc1F (racemic) [Compound 695] .
output: 0
